- TARGET OR SYSTEM: T1, human MCAM domain 3 (MCAMhFc domain construct) (human, UniProt P43121 244-321)
- T1 construct: also called amino acids 244-321; not shown: human Fc portion
- T1 sequence: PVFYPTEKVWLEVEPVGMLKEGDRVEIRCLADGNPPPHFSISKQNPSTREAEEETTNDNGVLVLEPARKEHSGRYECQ
- EXPERIMENT DESCRIPTION: ForteBio Octet Red, MCAMhFc domains on anti-human IgG Fc biosensors, antibody at 5 ug/ml
QUANTITY MEASURED: binding result

BINDER	QUANTITY MEASURED	RESULT
mouse anti-human MCAM monoclonal antibody clone 1749.1.3 (antibody, V domains shown, Mouse hybridoma antibody) VH: DVKLVESGGDLVKPGGSLKLSCAASGFTFSSYIMSWVRQTPEKRLEWVATISSGGSSTYYPDSVKGRFTISRDNAKNTLYLQMSSLKSEDTAMYYCTRDDDYDVKVFAYWGQGTLVTVSA VL: DIVMSQSPSSLAVSAGEKVTMNCKSSRSLLNSRIRKNYLAWYQQKPGQSPKLLIYWASTRESGVPDRFTGSGSGTDFTLTISSVQAEDLAVYYCKQSYNLLTFGAGTKLELK	binding result	binds

Provenance of the data: patent US20150259419A1
